Target: caspase 8 (Homo sapiens)
Construct: purchased Biomol International, UK
Sequence (Q14790 217-374 limits assumed): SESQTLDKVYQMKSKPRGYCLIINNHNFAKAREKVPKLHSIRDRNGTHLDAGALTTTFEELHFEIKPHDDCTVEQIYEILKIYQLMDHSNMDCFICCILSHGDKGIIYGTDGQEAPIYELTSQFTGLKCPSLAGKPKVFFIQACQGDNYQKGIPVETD
Sequence (Q14790 385-479 limits assumed): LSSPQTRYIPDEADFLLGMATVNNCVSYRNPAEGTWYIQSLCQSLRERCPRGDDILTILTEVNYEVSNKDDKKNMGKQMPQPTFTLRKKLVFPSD
Experiment: Fluorimetric in vitro caspase inhibition assay (7-AMC), caspase 8
Format: biochemical
Settings: recombinant human caspase 8, 10 μM Ac-IETD-AMC; read-out: Caspase EC50 (nM), 1/6/8: caspase 8
Procedure: Recombinant human caspases-1, -3, -6, -7, and -8 and their peptide-specific substrates were purchased from Biomol International, UK Inhibition of the recombinant caspases by non-radioactive isatins was assessed using a fluorometric assay that measures the accumulation of a fluorogenic product, 7-amino-4-methylcoumarin (7-AMC). All assays were performed in 96-well plates at a volume of 200 μl per well. […] All the isatins were analyzed in duplicate; the assays were repeated once. […]
# EC50 per record follows

Field: example entries. Status: answers known.
Name the recorded EC50 for `O=C1C(=O)N(Cc2ccc(F)cc2)c2ccc(S(=O)(=O)N3CCC[C@H]3COc3ccc(F)cc3F)cc21` .
> 5000 nM

Name the recorded EC50 for `O=C1C(=O)N(Cc2cn(CCF)nn2)c2ccc(S(=O)(=O)N3CCC[C@H]3COc3ccccc3)cc21` .
> 5000 nM

Name the recorded EC50 for `C#CCN1C(=O)C(=O)c2cc(S(=O)(=O)N3CCC[C@H]3COc3ccc(F)cc3F)ccc21` .
> 5000 nM

Now let's try a different one.
Name the recorded EC50 for `O=C1C(=O)N(Cc2ccc(F)cc2)c2ccc(S(=O)(=O)N3CCC[C@H]3COc3ccncn3)cc21` .
> 5000 nM
